Item-by-item account of Kd
System Name: T1, EsCas13d, nuclease-dead (Eubacterium siraeum, UniProt B0MS50, R295A;H300A;R849A;H854A)
T1 sequence: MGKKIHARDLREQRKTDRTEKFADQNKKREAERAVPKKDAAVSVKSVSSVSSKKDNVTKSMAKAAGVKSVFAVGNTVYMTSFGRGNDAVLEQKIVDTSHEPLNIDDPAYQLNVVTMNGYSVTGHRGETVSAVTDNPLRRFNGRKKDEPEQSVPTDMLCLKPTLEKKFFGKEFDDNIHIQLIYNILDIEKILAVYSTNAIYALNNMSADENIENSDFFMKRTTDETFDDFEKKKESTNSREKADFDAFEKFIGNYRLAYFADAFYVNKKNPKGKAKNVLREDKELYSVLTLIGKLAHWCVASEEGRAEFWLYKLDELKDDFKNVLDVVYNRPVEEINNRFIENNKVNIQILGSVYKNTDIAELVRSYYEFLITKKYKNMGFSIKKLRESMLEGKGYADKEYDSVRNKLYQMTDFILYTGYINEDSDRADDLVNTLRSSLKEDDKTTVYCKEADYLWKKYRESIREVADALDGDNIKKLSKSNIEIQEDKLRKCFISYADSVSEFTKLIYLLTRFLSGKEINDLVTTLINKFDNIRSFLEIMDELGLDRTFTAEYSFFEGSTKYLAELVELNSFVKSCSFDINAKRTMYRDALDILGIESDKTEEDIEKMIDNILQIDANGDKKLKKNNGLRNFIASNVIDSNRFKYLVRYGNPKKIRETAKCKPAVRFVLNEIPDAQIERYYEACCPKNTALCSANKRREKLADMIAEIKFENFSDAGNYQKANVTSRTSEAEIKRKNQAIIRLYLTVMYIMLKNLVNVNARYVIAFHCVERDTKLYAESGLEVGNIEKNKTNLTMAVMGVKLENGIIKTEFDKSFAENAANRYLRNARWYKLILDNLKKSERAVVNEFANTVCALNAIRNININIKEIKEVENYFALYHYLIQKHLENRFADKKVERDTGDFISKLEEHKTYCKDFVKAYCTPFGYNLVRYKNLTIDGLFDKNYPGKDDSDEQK
Assay Remarks: crRNA (strand 1, pre-loaded); Mg2+; 40 mM Tris-HCl pH 7.5, 150 mM NaCl, 6 mM MgCl2, 1 mM DTT, 0.1% Tween-20, 0.2 mg/ml BSA; 25 C; 10 min per concentration, then washed
Condition: tags: His6-TwinStrep-SUMO cleaved; N-terminal SNAP kept (SNAP-Surface 488); label: 3' end held by stalled T7 RNA polymerase
Endpoint Name: Kd (nM)

Binder | Endpoint Name | Value Measured
target 1 U8G,U10C (mixed) RNA 1: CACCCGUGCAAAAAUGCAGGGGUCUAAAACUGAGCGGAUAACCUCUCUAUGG RNA 2: GGGAAUGGAUCCACAUCUACGAAUUCGUACCAUAGAGAGGUCAGCCGCUCACCGAGAUCGGAAGAGCACACGU | Kd | 19.8
target 1 MT 5'PFS UCA 3'PFS AAA (mixed) RNA 1: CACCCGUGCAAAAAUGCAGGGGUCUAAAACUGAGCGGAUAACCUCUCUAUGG RNA 2: GGGAAUGGAUCCACAUCUACGAAUUCUCACCAUAGAGAGGUUAUCCGCUCAAAAAGAUCGGAAGAGCACACGU | Kd | 21
target 1 insU 3' of 13,insA 3' of 12 (mixed) RNA 1: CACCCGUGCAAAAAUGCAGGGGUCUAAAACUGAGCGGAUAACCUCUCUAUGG RNA 2: GGGAAUGGAUCCACAUCUACGAAUUCGUACCAUAGAGAGUGAUUAUCCGCUCACCGAGAUCGGAAGAGCACACGU | Kd | 10.1
target 2 MT 5'PFS CGA 3'PFS AAC (mixed) RNA 1: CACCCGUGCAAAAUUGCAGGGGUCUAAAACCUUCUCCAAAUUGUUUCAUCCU RNA 2: GGGAAUGGAUCCACAUCUACGAAUUCCGAAGGAUGAAACAAUUUGGAGAAGAACAGAUCGGAAGAGCACACGU | Kd | 7.5
